Tested on: MCF7
Assay: Cytotoxicity against human MCF7 cells after 72 hrs by MTT assay
Assay type: functional, cell-based
Details: MCF7, 72 h
ASSAY_METRIC: pIC50
A value of pIC50 is the negative decimal logarithm of a concentration given in moles per litre.

Request: Please report the recorded pIC50 for CO[C@H]1C[C@H]2OC[C@@]2(OC(C)=O)[C@H]2[C@H](OC(=O)c3ccccc3)[C@]34OC(=O)O[C@H]3[C@H](OC(=O)[C@H](O)[C@H](CC(C)C)NC(=O)OC(C)(C)C)C(C)=C([C@@H](OC(=O)N(C)C)C(=O)[C@]12C)C4(C)C .
Response: 8.19

Request: Please report the recorded pIC50 for COC(=O)O[C@H]1C[C@H]2OC[C@@]2(OC(C)=O)[C@H]2[C@H](OC(=O)c3ccccc3)[C@]34OC(=O)O[C@H]3[C@H](OC(=O)[C@H](O)[C@H](CC(C)C)NC(=O)OC(C)(C)C)C(C)=C([C@@H](OC)C(=O)[C@]12C)C4(C)C .
Response: 8.53

Request: Please report the recorded pIC50 for COC(=O)O[C@H]1C[C@H]2OC[C@@]2(OC(C)=O)[C@H]2[C@H](OC(=O)c3ccccc3)[C@]34OC(=O)O[C@H]3[C@H](OC(=O)[C@H](O)[C@@H](NC(=O)OC(C)(C)C)c3ccccc3)C(C)=C([C@@H](OC)C(=O)[C@]12C)C4(C)C .
Response: 8.42

Request: Please report the recorded pIC50 for COC(=O)O[C@H]1C(=O)[C@]2(C)[C@@H](OC)C[C@H]3OC[C@@]3(OC(C)=O)[C@H]2[C@H](OC(=O)c2ccccc2)[C@]23OC(=O)O[C@H]2[C@H](OC(=O)[C@H](O)[C@@H](NC(=O)OC(C)(C)C)c2ccccc2)C(C)=C1C3(C)C .
Response: 8.49

Request: Please report the recorded pIC50 for COC(=O)O[C@H]1C(=O)[C@]2(C)[C@@H](OC)C[C@H]3OC[C@@]3(OC(C)=O)[C@H]2[C@H](OC(=O)c2ccccc2)[C@]2(O)C[C@H](OC(=O)[C@H](O)[C@@H](NC(=O)OC(C)(C)C)c3ccccc3)C(C)=C1C2(C)C .
Response: 8.85

Request: Please report the recorded pIC50 for CO[C@H]1C(=O)[C@]2(C)[C@@H](OC(=O)N(C)C)C[C@H]3OC[C@@]3(OC(C)=O)[C@H]2[C@H](OC(=O)c2ccccc2)[C@]23OC(=O)O[C@H]2[C@H](OC(=O)[C@H](O)[C@@H](NC(=O)OC(C)(C)C)c2ccccc2)C(C)=C1C3(C)C .
Response: 7.81

Request: Please report the recorded pIC50 for COC(=O)O[C@H]1C(=O)[C@]2(C)[C@@H](OC)C[C@H]3OC[C@@]3(OC(C)=O)[C@H]2[C@H](OC(=O)c2ccccc2)[C@]2(O)C[C@H](OC(=O)[C@H](O)[C@H](CC(C)C)NC(=O)OC(C)(C)C)C(C)=C1C2(C)C .
Response: 8.54

Request: Please report the recorded pIC50 for CO[C@H]1C(=O)[C@]2(C)CC[C@H]3OC[C@@]3(OC(C)=O)[C@H]2[C@H](OC(=O)c2ccccc2)[C@]2(O)C[C@H](OC(=O)[C@H](O)[C@H](CC(C)C)NC(=O)OC(C)(C)C)C(C)=C1C2(C)C .
Response: 8.51

Request: Please report the recorded pIC50 for CO[C@H]1C(=O)[C@]2(C)[C@@H](OC)C[C@H]3OC[C@@]3(OC(C)=O)[C@H]2[C@H](OC(=O)c2ccccc2)[C@]23OC(=O)O[C@H]2[C@H](OC(=O)[C@H](O)[C@@H](NC(=O)OC(C)(C)C)c2ccccc2)C(C)=C1C3(C)C .
Response: 8.68

Request: Please report the recorded pIC50 for CO[C@H]1C(=O)[C@]2(C)[C@@H](OC(=O)N(C)C)C[C@H]3OC[C@@]3(OC(C)=O)[C@H]2[C@H](OC(=O)c2ccccc2)[C@]2(O)C[C@H](OC(=O)[C@H](O)[C@@H](NC(=O)OC(C)(C)C)c3ccccn3)C(C)=C1C2(C)C .
Response: 7.33

Request: Please report the recorded pIC50 for CO[C@H]1C[C@H]2OC[C@@]2(OC(C)=O)[C@H]2[C@H](OC(=O)c3ccccc3)[C@]34OC(=O)O[C@H]3[C@H](OC(=O)[C@H](O)[C@@H](NC(=O)OC(C)(C)C)c3ccccc3)C(C)=C([C@@H](OC(=O)N(C)C)C(=O)[C@]12C)C4(C)C .
Response: 8.10

Request: Please report the recorded pIC50 for CO[C@H]1C(=O)[C@]2(C)[C@@H](OC(=O)N(C)C)C[C@H]3OC[C@@]3(OC(C)=O)[C@H]2[C@H](OC(=O)c2ccccc2)[C@]23OC(=O)O[C@H]2[C@H](OC(=O)[C@H](O)[C@H](CC(C)C)NC(=O)OC(C)(C)C)C(C)=C1C3(C)C .
Response: 7.67

Request: Please report the recorded pIC50 for CO[C@H]1C(=O)[C@]2(C)CC[C@H]3OC[C@@]3(OC(C)=O)[C@H]2[C@H](OC(=O)c2ccccc2)[C@]2(O)C[C@H](OC(=O)[C@H](O)[C@@H](NC(=O)OC(C)(C)C)c3ccccc3)C(C)=C1C2(C)C .
Response: 8.48

Request: Please report the recorded pIC50 for CO[C@H]1C[C@H]2OC[C@@]2(OC(C)=O)[C@H]2[C@H](OC(=O)c3ccccc3)[C@]3(O)C[C@H](OC(=O)[C@H](O)[C@@H](NC(=O)OC(C)(C)C)c4ccccc4)C(C)=C([C@@H](OC(=O)N(C)C)C(=O)[C@]12C)C3(C)C .
Response: 8.80

Request: Please report the recorded pIC50 for COC(=O)O[C@H]1C[C@H]2OC[C@@]2(OC(C)=O)[C@H]2[C@H](OC(=O)c3ccccc3)[C@]3(O)C[C@H](OC(=O)[C@H](O)[C@@H](NC(=O)OC(C)(C)C)c4ccccc4)C(C)=C([C@@H](OC)C(=O)[C@]12C)C3(C)C .
Response: 8.30
